test system: Mycobacterium tuberculosis; assay: Cornell - Phenotypic assay to identify agents that inhibit growth of Mycobacterium tuberculosis; type: functional; design: scale not given: direction of the effect not stated beside the values; conditions: 10 mM as filed; unlikely as a test dose
About 900 (1.7%) of roughly 53,000 compounds showed an effect of 50% or more. The sample as a whole holds a higher share of strong results than the screen did.
Classify by measured Percent Effect: Condition met if it is equal to or exceeds 40%, Condition not met if it is smaller.

These recorded examples may help you get a feel for the data.
[[record]]
molecule = "O=C(c1ccc(COc2ccccc2Cl)o1)N1N=CCC1(O)C(F)(F)F (configuration not stated)"
cat = "Condition not met"

[[record]]
molecule = "O=C(O)c1sccc1Oc1ccc(NC(=O)C2CC2)cc1"
cat = "Condition met"


Read the next record carefully.
Task: API: above_or_equal(metric=Percent Effect, cutoff=40%) for item Cc1nc(NCC2CC2)nc2c1COCC21CCN(CC(=O)N(C)C)C1 (configuration not stated)
Output: Condition not met
